B1: POU domain, class 3, transcription factor 3, residues 408 to 463; numbered along this chain, P20264 (parent)
chain: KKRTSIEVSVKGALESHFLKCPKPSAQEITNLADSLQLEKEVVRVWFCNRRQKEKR

- Variants of: B1
- METHOD: abundance fitness (aPCA) (normalised: wild type 0, dead -1); higher = more abundant; growth selection in yeast, the domain comes from the species named
- TEST_CONTEXT: Homo sapiens

VARIANT_LABEL: E7G
abundance fitness: 0.013
--
VARIANT_LABEL: E7M
abundance fitness: -0.035
--
VARIANT_LABEL: R56T
abundance fitness: -0.05
--
VARIANT_LABEL: V43C
abundance fitness: -0.714
--
VARIANT_LABEL: I6E
abundance fitness: -0.091
--
VARIANT_LABEL: E7D
abundance fitness: 0.05
--
VARIANT_LABEL: S9W
abundance fitness: -0.192
--
VARIANT_LABEL: K53I
abundance fitness: -0.121
--
VARIANT_LABEL: P22Y
abundance fitness: -0.383
--
VARIANT_LABEL: S25C
abundance fitness: -0.185
--
VARIANT_LABEL: R56H
abundance fitness: -0.277
--
VARIANT_LABEL: H17G
abundance fitness: -0.683
--
VARIANT_LABEL: S25F
abundance fitness: -0.773
--
VARIANT_LABEL: K20W
abundance fitness: -0.421
--
VARIANT_LABEL: Q52Y
abundance fitness: -0.257
--
VARIANT_LABEL: K20L
abundance fitness: -0.195
--
VARIANT_LABEL: N49C
abundance fitness: -0.202
--
VARIANT_LABEL: V10H
abundance fitness: 0.072
--
VARIANT_LABEL: S35G
abundance fitness: -0.194
--
VARIANT_LABEL: H17M
abundance fitness: -0.147
--
VARIANT_LABEL: H17E
abundance fitness: -0.176
--
VARIANT_LABEL: Q37W
abundance fitness: -0.374
--
VARIANT_LABEL: E41F
abundance fitness: -1.1
--
VARIANT_LABEL: I6Q
abundance fitness: -0.084
--
VARIANT_LABEL: V42R
abundance fitness: -0.224
--
VARIANT_LABEL: C21Q
abundance fitness: 0.084
--
VARIANT_LABEL: E39G
abundance fitness: -0.257
--
VARIANT_LABEL: L19A
abundance fitness: -0.029
--
VARIANT_LABEL: V8D
abundance fitness: -0.075
--
VARIANT_LABEL: K55W
abundance fitness: -0.129
--
VARIANT_LABEL: S9Q
abundance fitness: 0.067
--
VARIANT_LABEL: K55F
abundance fitness: -0.312
--
VARIANT_LABEL: K2M
abundance fitness: -0.066
--
VARIANT_LABEL: K2I
abundance fitness: -0.374
--
VARIANT_LABEL: V43P
abundance fitness: -0.818
--
VARIANT_LABEL: I6R
abundance fitness: -0.108
--
VARIANT_LABEL: Q52D
abundance fitness: 0.034
--
VARIANT_LABEL: K23L
abundance fitness: -0.057
--
VARIANT_LABEL: S16V
abundance fitness: -0.261
--
VARIANT_LABEL: K23M
abundance fitness: -0.031
--
VARIANT_LABEL: R51A
abundance fitness: -0.105
--
VARIANT_LABEL: K55I
abundance fitness: -0.234
--
VARIANT_LABEL: L36M
abundance fitness: -0.166
--
VARIANT_LABEL: L19S
abundance fitness: -0.047
--
VARIANT_LABEL: T30W
abundance fitness: -0.327
--
VARIANT_LABEL: K20F
abundance fitness: -0.438
--
VARIANT_LABEL: S25I
abundance fitness: -0.84
--
VARIANT_LABEL: I29S
abundance fitness: -0.781
--
VARIANT_LABEL: L32N
abundance fitness: -0.897
--
VARIANT_LABEL: V8G
abundance fitness: 0.055
--
VARIANT_LABEL: S35H
abundance fitness: -0.048
--
VARIANT_LABEL: E39N
abundance fitness: 0.013
--
VARIANT_LABEL: T4K
abundance fitness: -0.142
--
VARIANT_LABEL: A33V
abundance fitness: -0.955
--
VARIANT_LABEL: V45F
abundance fitness: -0.211
--
VARIANT_LABEL: L19W
abundance fitness: -0.339
--
VARIANT_LABEL: S35W
abundance fitness: -0.228
--
VARIANT_LABEL: T4H
abundance fitness: -0.405
--
VARIANT_LABEL: K55E
abundance fitness: 0.024
--
VARIANT_LABEL: E15M
abundance fitness: -0.713
--
VARIANT_LABEL: K40D
abundance fitness: -0.028
--
VARIANT_LABEL: K11H
abundance fitness: -0.04
--
VARIANT_LABEL: R3Q
abundance fitness: -0.217
--
VARIANT_LABEL: P22I
abundance fitness: -0.572
--
VARIANT_LABEL: L36V
abundance fitness: -0.522
--
VARIANT_LABEL: V42C
abundance fitness: -0.172
--
VARIANT_LABEL: V42N
abundance fitness: -0.586
--
VARIANT_LABEL: K11A
abundance fitness: -0.099
--
VARIANT_LABEL: Q27A
abundance fitness: -0.049
--
VARIANT_LABEL: S16A
abundance fitness: -0.026
--
VARIANT_LABEL: E54H
abundance fitness: -0.432
--
VARIANT_LABEL: V43F
abundance fitness: -1.02
--
VARIANT_LABEL: L19H
abundance fitness: -0.173
--
VARIANT_LABEL: V43W
abundance fitness: -0.994
--
VARIANT_LABEL: P22G
abundance fitness: -0.19
--
VARIANT_LABEL: S9M
abundance fitness: -0.305
--
VARIANT_LABEL: R50C
abundance fitness: -0.75
--
VARIANT_LABEL: K11M
abundance fitness: -0.006
--
VARIANT_LABEL: K23Q
abundance fitness: -0.192
--
VARIANT_LABEL: S5N
abundance fitness: 0.193
--
VARIANT_LABEL: L19Q
abundance fitness: 0.002
--
VARIANT_LABEL: K40S
abundance fitness: 0.016

Values compiled from the Human Domainome abundance scans (Beltran et al. 2025).
